# System under test: Mcl-1 (Homo sapiens)
# Construct: c-myc
# Sequence (Q07820 whole entry): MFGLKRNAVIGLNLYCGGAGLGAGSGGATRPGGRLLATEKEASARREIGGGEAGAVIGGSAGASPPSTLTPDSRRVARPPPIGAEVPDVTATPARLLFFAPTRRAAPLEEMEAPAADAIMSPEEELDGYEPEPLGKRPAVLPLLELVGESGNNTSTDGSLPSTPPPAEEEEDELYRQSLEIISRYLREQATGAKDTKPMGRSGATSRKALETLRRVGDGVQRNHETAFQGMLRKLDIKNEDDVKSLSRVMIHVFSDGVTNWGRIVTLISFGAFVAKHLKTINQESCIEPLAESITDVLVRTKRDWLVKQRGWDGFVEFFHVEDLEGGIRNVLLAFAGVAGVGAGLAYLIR
# Assay explanation: Competition fluorescence polarization (anisotropy) with fluoresceinated BIM
# Format: binding
# Test context: competition FP source data; replicate 1
Endpoint name: Ki (M) Mcl-1

>  <Substance>
Ac-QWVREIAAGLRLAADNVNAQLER-NH2 [FS1]

>  <Ki (M) Mcl-1>
2.37e-06 M

$$$$
>  <Substance>
Ac-QWAREIGAGLRRAADDVNAQVER-NH2 [Puma_N/FS2_C]

>  <Ki (M) Mcl-1>
6.72e-10 M

$$$$
>  <Substance>
Ac-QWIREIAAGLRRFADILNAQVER-NH2 [FS3]

>  <Ki (M) Mcl-1>
6.51e-07 M

$$$$
>  <Substance>
Ac-QWVREIAAQLRRMADDLNAQYER-NH2 [FS2_N/Puma_C]

>  <Ki (M) Mcl-1>
5.7e-06 M

$$$$

Notebook entry, Mcl-1 (Homo sapiens) assay: Ki (M) Mcl-1 of Ac-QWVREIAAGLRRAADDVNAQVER-NH2 [FS2] = ?
2.88e-06 M

----------
Provide the recorded Ki for the entries that follow.
# System under test: Bcl-w (Homo sapiens)
# Construct: c-myc
# Sequence (Q92843 whole entry): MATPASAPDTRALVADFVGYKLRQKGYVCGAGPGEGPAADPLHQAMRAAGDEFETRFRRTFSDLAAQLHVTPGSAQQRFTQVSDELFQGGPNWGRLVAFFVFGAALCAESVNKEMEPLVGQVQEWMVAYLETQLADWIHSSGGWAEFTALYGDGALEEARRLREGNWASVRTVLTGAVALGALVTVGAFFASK
# Assay explanation: Competition fluorescence polarization (anisotropy) with fluoresceinated BIM
# Format: binding
# Test context: competition FP, 50 nM c-myc-tagged receptor + 25 nM fluoresceinated BIM, Tris pH 7.8, 23°C, 3 hr; mean ± SD of three replicates; read-out: Ki (nM) Bcl-w

Sample answers from the record:
>  <Substance>
Ac-QWVREIAAQLRRMADDLNAQYER-NH2 [FS2_N/Puma_C]

>  <System under test>
Bcl-w (Homo sapiens)

>  <Ki>
1.2 nM

$$$$
>  <Substance>
Ac-QWAREIGAGLRRAADDVNAQVER-NH2 [Puma_N/FS2_C]

>  <System under test>
Bcl-w (Homo sapiens)

>  <Ki>
> 5000 nM

$$$$
>  <Substance>
Ac-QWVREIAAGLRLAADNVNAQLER-NH2 [FS1]

>  <System under test>
Bcl-w (Homo sapiens)

>  <Ki>
> 5000 nM

$$$$

Continue with the substance presented below.
Notebook entry, Bcl-w (Homo sapiens) assay: Ki of Ac-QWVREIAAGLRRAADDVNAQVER-NH2 [FS2] = ?
> 5000 nM

----------
Provide the recorded Ki for the entries that follow.
# System under test: Bcl-2 (Homo sapiens)
# Construct: c-myc
# Sequence (P10415 whole entry): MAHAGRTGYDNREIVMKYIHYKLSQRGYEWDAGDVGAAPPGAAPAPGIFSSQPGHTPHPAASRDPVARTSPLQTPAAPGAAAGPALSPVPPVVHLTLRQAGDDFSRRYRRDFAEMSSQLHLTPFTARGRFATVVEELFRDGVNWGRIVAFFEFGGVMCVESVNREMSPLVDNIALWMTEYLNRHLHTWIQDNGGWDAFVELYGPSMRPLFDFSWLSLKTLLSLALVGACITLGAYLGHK
# Assay explanation: Competition fluorescence polarization (anisotropy) with fluoresceinated BIM
# Type: binding
# Test context: competition FP, 50 nM c-myc-tagged receptor + 25 nM fluoresceinated BIM, Tris pH 7.8, 23°C, 3 hr; mean ± SD of three replicates; read-out: Ki (nM) Bcl-2
Give bare numbers, in nM.

>  <Substance>
Ac-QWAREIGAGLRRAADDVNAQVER-NH2 [Puma_N/FS2_C]

>  <Assay value>
2000

$$$$

Continue with the substance presented below.
# get_value(readout='Ki', item= Ac-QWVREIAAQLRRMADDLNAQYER-NH2 [FS2_N/Puma_C] )
14

----------
Provide the recorded Ki (M) Bcl-2 for the entries that follow.
# System under test: Bcl-2 (Homo sapiens)
# Construct: c-myc
# Assay explanation: Competition fluorescence polarization (anisotropy) with fluoresceinated BIM
# Assay type: binding
# Test context: competition FP source data; replicate 3
# Experimental: Plates were mixed at 23°C for 3 hr. Plates were read again at 24 to check equilibration. Experiments were done in at least triplicate.

Sample answers from the record:
>  <Substance>
Ac-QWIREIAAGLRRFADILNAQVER-NH2 [FS3]

>  <Assay value>
1.93e-06 M

$$$$
>  <Substance>
Ac-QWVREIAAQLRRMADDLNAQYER-NH2 [FS2_N/Puma_C]

>  <Assay value>
2.17e-06 M

$$$$
>  <Substance>
Ac-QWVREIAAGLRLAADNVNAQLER-NH2 [FS1]

>  <Assay value>
2.9e-06 M

$$$$

Continue with the substance presented below.
# get_value(readout='Ki (M) Bcl-2', item= Ac-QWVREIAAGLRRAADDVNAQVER-NH2 [FS2] )
1.82e-06 M
